All values here come from PubChem BioAssay (Tox21).

# experiment-notes: qHTS assay for small molecule disruptors of the mitochondrial membrane potential - cell viability (AID 720634); also: nearly all actives have a fitted effect of over 20% in size
# recorded-conditions: HepG2 viability, ATP luminescence (CellTiter-Glo), 1 h; series mostly up to 83.2 µM
Records with an inconclusive call do not appear. Activity calls are given as the source filed them. Calls follow the shape of the full dose curve.
Use one of these outcomes when replying: 1 (yes) = active, 0 (no) = inactive

# example entries with known answers
GET /call?item= NC(Cc1ccc(Cl)cc1)C(=O)O (configuration not stated) returns the recorded outcome of this test. 0 (no)

And O=C(Oc1ccccc1)c1ccccc1O ? 0 (no)

More entries:
GET /call?item= Nc1ccc(O)cc1 returns the recorded outcome of this test. 1 (yes)

And Nc1cc(S(=O)(=O)O)cc2cc(S(=O)(=O)O)cc(O)c12 ? 0 (no)

And O=Cc1ccc(Cl)cc1 ? 0 (no)

And O ? 0 (no)

And COC(=O)[C@H]1[C@H]2C[C@@H]3c4[nH]c5cc(OC)ccc5c4CCN3C[C@H]2C[C@@H](OC(=O)c2cc(OC)c(OC)c(OC)c2)[C@@H]1OC ? 0 (no)

And O=C(O)c1cc(Cl)cc(Cl)c1 ? 0 (no)

And Cc1cc(C(C)(C)C)c(O)c(C(C)(C)C)c1 ? 0 (no)

And CC(C)(C)c1ccc(O)c(C(C)(C)C)c1 ? 1 (yes)

And O=C(O[C@@H]1Cc2c(O)cc(O)cc2O[C@@H]1c1cc(O)c(O)c(O)c1)c1cc(O)c(O)c(O)c1 ? 0 (no)

And CC(C)C(=O)c1c(C(C)C)nn2ccccc12 ? 0 (no)

And N[C@@H]1CONC1=O ? 0 (no)

And O=C1NCC2(CCN(CCc3ccccc3)CC2)O1 ? 0 (no)

---

# experiment-notes: qHTS RealTime-Glo MT Cell Viability Assay in HEK293 cells - 32 hour (AID 1224868); also: nearly all actives have a fitted effect of over 50% in size
# recorded-conditions: RealTime-Glo luminescence; series mostly up to 76.8 µM
Records with an inconclusive call do not appear. The source made the active and inactive calls. The call rests on the fitted dose curve; in most records, active means well fitted cell-killing curve with a large enough effect in the repeat runs; inconclusive means weak or mixed curves, or effect the other way; inactive means flat fitted curve, though single readings scatter.
Use one of these outcomes when replying: label 1 (active), label 0 (inactive)

GET /call?item= Nc1cc(S(=O)(=O)O)cc2cc(S(=O)(=O)O)cc(O)c12 returns the recorded outcome of this test. label 0

And N[C@@H]1CONC1=O ? label 0

And NCCCCCC(=O)O ? label 0

And OCC(CO)N[C@H]1C[C@](O)(CO)[C@@H](O)[C@H](O)[C@H]1O ? label 0

And COc1cc(C(=S)N2CCOCC2)ccc1O ? label 0

And C/C=C/c1ccc(OCC)c(O)c1 ? label 0

More entries:
GET /call?item= C=CC(=O)OCCCCCCOC(=O)C=C returns the recorded outcome of this test. label 1

And CCCCC/C=C/CC1CC(=O)OC1=O (configuration not stated) ? label 0

And CCCCN(CCO)CCCC ? label 0

And CC(=O)CC(C)=O ? label 0

And C=CC(=O)OCCCCCCCC ? label 0

And CN1C(=O)c2ccc([N+](=O)[O-])cc2C1=O ? label 0

And O=C(O)c1cn(-c2ccc(F)cc2)c2cc(N3CCNCC3)c(F)cc2c1=O ? label 0

And CCN(CC)c1ccc2c(C)cc(=O)oc2c1 ? label 1

And C1COC(NC(C2CC2)C2CC2)=N1 ? label 0

And NC12CC3CC(CC(C3)C1)C2 ? label 0

And CCN(CC)C(=O)Nc1ccc(OCC(O)CNC(C)(C)C)c(C(C)=O)c1 (configuration not stated) ? label 0

And CC(C)(C)NCC(O)COc1ccccc1OCC1CCCO1 (configuration not stated) ? label 0

And O=C(O)c1cccc(C(=O)O)c1 ? label 0

And O=C1NCC2(CCN(CCc3ccccc3)CC2)O1 ? label 0

And O=C(Oc1ccccc1)c1ccccc1O ? label 0

---

# experiment-notes: Human pregnane X receptor (PXR) small molecule agonists, qHTS cell viability counter screen (AID 1346977); also: nearly all actives have a fitted effect of over 50% in size
# recorded-conditions: PXR-Luc HepG2 viability, CellTiter-Fluor, 24 h; series mostly up to 92.4 µM
Inconclusive results are not listed. Activity calls are given as the source filed them. The call rests on the fitted dose curve; in most records, active means well fitted cell-killing curve with a large enough effect in the repeat runs; inconclusive means weak or mixed curves, or effect the other way; inactive means flat fitted curve, though single readings scatter.
Use one of these outcomes when replying: y (active), n (inactive)

# example entries with known answers
GET /call?item= CC1COc2c(N3CCN(C)CC3)c(F)cc3c(=O)c(C(=O)O)cn1c23 (stereo not drawn) returns the recorded outcome of this test. n

And O=C(O)c1cn(-c2ccc(F)cc2)c2cc(N3CCNCC3)c(F)cc2c1=O ? n

And O=C(O)c1cc(Cl)cc(Cl)c1 ? n

And CC(=O)OCC1=C(C(=O)O)N2C(=O)[C@@H](NC(=O)Cc3cccs3)[C@H]2SC1 ? n

And CC1=CC(=O)c2ccccc2C1=O ? y

And O=C(O)c1cccc(C(=O)O)c1 ? n

And N[C@@H]1CONC1=O ? n

And CCN(CC)c1ccc2c(C)cc(=O)oc2c1 ? n

More entries:
GET /call?item= OCC(CO)N[C@H]1C[C@](O)(CO)[C@@H](O)[C@H](O)[C@H]1O returns the recorded outcome of this test. n

And CC(C)C(=O)c1c(C(C)C)nn2ccccc12 ? n

And CCCC(=O)c1ccccc1 ? n

And CCC(C)(Oc1ccc(C2(c3ccc(OC(C)(CC)C(=O)O)cc3)CCCCC2)cc1)C(=O)O (stereo not drawn) ? n

And COc1cc(C(=S)N2CCOCC2)ccc1O ? n

And O=C(Nc1ccccc1SSc1ccccc1NC(=O)c1ccccc1)c1ccccc1 ? n

---

# measurement-target: Peroxisome proliferator-activated receptor delta (Homo sapiens) (UniProt Q03181)
# Sequence (Q03181 whole entry, looked up): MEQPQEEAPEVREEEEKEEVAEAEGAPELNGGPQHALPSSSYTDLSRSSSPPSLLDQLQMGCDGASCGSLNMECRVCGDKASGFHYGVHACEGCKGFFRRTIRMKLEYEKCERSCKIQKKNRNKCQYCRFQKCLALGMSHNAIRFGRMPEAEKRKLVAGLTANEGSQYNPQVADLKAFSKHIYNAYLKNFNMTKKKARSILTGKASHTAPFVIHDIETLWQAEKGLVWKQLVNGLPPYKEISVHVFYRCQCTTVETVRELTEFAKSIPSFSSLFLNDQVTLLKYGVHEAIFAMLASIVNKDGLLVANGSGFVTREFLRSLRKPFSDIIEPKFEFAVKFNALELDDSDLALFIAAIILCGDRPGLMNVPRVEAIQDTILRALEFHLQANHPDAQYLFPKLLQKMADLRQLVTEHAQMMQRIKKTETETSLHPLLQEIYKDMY
# experiment-notes: qHTS assay to identify small molecule agonists of the peroxisome proliferator-activated receptor delta (PPARd) signaling pathway (AID 743212);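 also: HEK293H cells with PPARd UAS beta-lactamase reporter GeneBLAzer system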
# recorded-conditions: HEK293H PPARd-UAS-bla, beta-lactamase FRET ratio, 17 h; series mostly up to 62.6 µM
# From the text: U.S. Tox21 Program National Center for Advancing Translational Sciences [NCATS] NIH Chemical Genomics Center [NCGC] U.S. Environmental Protection Agency [EPA] National Institutes of Environmental Health Sciences [NIEHS] National Toxicology Program [NTP] U.S. Food and Drug Administration [FDA] […]
Inconclusive results are not listed. The source made the active and inactive calls. Calls come from the whole dose curve.
property-measured: outcome

Find the recorded outcome belonging to NC(N)=Nc1nc(CSCC/C(N)=N/S(N)(=O)=O)cs1 and report it. inactive

And CCOc1ccc2c(c1)C(C)=CC(C)(C)N2 ? inactive

And CCc1cc(C(C)(C)C)c(O)c(C(C)(C)C)c1 ? inactive

And C#CC(C)(CC)OC(=O)c1ccccc1C(=O)O (configuration not stated) ? inactive

And CCN1CCCC1CNC(=O)c1cc(S(=O)(=O)CC)c(N)cc1OC (configuration not stated) ? inactive

And CC(C)(O)CCC(C)(C)O ? inactive

Then there is this molecule:
Find the recorded outcome belonging to CC(C)CCOC(=O)c1ccc(N(C)C)cc1 and report it. inactive

---

# measurement-target: Aromatase (Homo sapiens) (UniProt P11511)
# Sequence (P11511 whole entry, looked up): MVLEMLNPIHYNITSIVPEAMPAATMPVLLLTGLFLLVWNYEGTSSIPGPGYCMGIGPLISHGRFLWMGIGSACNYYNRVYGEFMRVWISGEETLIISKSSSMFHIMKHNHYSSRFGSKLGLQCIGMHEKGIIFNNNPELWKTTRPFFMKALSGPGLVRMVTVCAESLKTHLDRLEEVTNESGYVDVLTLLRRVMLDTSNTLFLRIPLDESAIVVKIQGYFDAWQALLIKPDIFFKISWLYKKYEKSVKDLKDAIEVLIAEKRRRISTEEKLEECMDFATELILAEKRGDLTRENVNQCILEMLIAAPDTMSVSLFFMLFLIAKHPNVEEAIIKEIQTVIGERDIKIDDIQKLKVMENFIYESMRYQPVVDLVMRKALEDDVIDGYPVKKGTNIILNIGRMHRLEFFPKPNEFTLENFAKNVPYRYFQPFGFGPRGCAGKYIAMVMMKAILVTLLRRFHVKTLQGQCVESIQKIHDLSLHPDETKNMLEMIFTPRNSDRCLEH
# experiment-notes: qHTS assay to identify aromatase inhibitors (AID 743083); also: nearly all actives have a fitted effect of over 55% in size
# recorded-conditions: MCF-7 aro ERE, testosterone-driven ERE luciferase, 24 h; series mostly up to 70.3 µM
Records with an inconclusive call do not appear. Active and inactive are the calls of the source. The call rests on the fitted dose curve; in most records, active means well fitted inhibition curve with a large enough effect in the repeat runs; inconclusive means weak or mixed curves; inactive means no such curve, though single readings can be large or run the other way.
Use one of these outcomes when replying: active, inactive

GET /call?item= COc1ccc(COC(C)=O)cc1 returns the recorded outcome of this test. inactive

And CCc1cc(C(C)(C)C)c(O)c(C(C)(C)C)c1 ? inactive

And CC(C)CCCCCCc1ccc(O)cc1 ? active

And CC(C)CCOC(=O)c1ccc(N(C)C)cc1 ? inactive

More entries:
GET /call?item= O=C(O)CP(=O)(O)O returns the recorded outcome of this test. inactive

And Nc1cc(S(=O)(=O)O)cc2cc(S(=O)(=O)O)cc(O)c12 ? inactive

And C1COC(NC(C2CC2)C2CC2)=N1 ? inactive

---

# experiment-notes: qHTS assay to identify small molecule agonists of the estrogen receptor beta (ER-beta) signaling pathway - cell viability counter screen (AID 1259380); also: nearly all actives have a fitted effect of over 30% in size
# recorded-conditions: ER-beta-bla HEK293T viability, CellTiter-Glo luminescence, 16 h; series mostly up to 92.4 µM
Inconclusive results are not listed. Active and inactive are the calls of the source. Calls follow the shape of the dose curve; as a rule, active = well fitted cell-killing curve with a large enough effect in the repeat runs; inconclusive = weak or mixed curves, or effect the other way; inactive = flat fitted curve, though single readings scatter.
Use one of these outcomes when replying: active, inactive

GET /call?item= Cc1cc(C(C)(C)C)c(O)c(C(C)(C)C)c1 returns the recorded outcome of this test. inactive

And CCCN[C@H]1CCc2nc(N)sc2C1 ? inactive

And CC(=O)OCCOCCOCCOC(C)=O ? inactive

Switching to the query record.
GET /call?item= CC[C@@H](N)CO returns the recorded outcome of this test. inactive
